Parameter pIC50: see the listing below.
system_tested: Protein Mdm4 (Homo sapiens)
Sequence (O15151 whole entry): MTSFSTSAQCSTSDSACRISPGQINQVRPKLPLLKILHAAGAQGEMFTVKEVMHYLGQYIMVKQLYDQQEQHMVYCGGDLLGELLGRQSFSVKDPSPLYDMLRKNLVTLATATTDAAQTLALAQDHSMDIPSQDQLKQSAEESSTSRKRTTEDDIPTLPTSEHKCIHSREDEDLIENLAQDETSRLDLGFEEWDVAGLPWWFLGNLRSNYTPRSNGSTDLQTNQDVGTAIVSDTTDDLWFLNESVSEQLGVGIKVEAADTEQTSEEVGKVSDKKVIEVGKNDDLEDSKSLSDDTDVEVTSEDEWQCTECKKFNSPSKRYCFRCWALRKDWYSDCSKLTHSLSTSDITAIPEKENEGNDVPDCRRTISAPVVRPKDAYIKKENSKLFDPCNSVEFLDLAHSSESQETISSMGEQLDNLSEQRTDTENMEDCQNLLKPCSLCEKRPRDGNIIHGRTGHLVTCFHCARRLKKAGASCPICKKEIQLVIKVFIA
pIC50: −log10 of the molar value.
result_type: pIC50

{"chem_smiles": "O=C(NCCN1CCOCC1)c1[nH]c2cc(Cl)ccc2c1-c1c(-c2ccccc2)ncn1Cc1ccc(Cl)cc1", "system_tested": "Protein Mdm4 (Homo sapiens)", "result_type": "pIC50", "result": 4.72}
{"chem_smiles": "CC(C)CCn1cnc(-c2ccccc2)c1-c1c[nH]c2cc(Cl)ccc12", "system_tested": "Protein Mdm4 (Homo sapiens)", "result_type": "pIC50", "result": 4.74}
{"chem_smiles": "Clc1ccc(Cn2cnc(-c3ccccc3)c2-c2c[nH]c3cc(Cl)ccc23)cc1", "system_tested": "Protein Mdm4 (Homo sapiens)", "result_type": "pIC50", "result": 4.66}

These entries and their values trace back to ChEMBL document CHEMBL2021844.
